Here's a batch of compounds along with measured MIC, K. pneumoniae (causing pneumonia) for K. pneumoniae (ATCC 13383).

Some compounds with recorded MIC, K. pneumoniae (causing pneumonia):
// Input: NCCCC[C@H](N)CN(CC(=O)N[C@@H](CCCCN)CN(CC(=O)N[C@@H](CCCCN)CN(CC(=O)N[C@@H](CCCCN)CN(CC(=O)N[C@@H](CCCCN)CN(CC(=O)N[C@@H](CCCCN)CN(CC(=O)N[C@@H](CCCCN)CN(CC(N)=O)C(=O)CCc1ccccc1)C(=O)CCc1ccccc1)C(=O)CCc1ccccc1)C(=O)CCc1ccccc1)C(=O)CCc1ccccc1)C(=O)CCc1ccccc1)C(=O)CCc1ccccc1 . Output its MIC, K. pneumoniae (causing pneumonia) only. >100 µg/mL

Using the record for CC(C)CCC(=O)N1CC(=O)N[C@@H](CCCCN)CN(C(=O)CCc2ccccc2)CC(=O)N[C@@H](CCCCN)CN(C(=O)CCc2ccccc2)CC(=O)N[C@@H](Cc2ccccc2)CN(CC(N)=O)C(=O)CCC(=O)N[C@@H](CCCCN)CN(C(=O)CCc2ccccc2)CC(=O)N[C@@H](CCCCN)CN(C(=O)CCc2ccccc2)CC(=O)N[C@@H](CCCCN)CN(C(=O)CCc2ccccc2)CC(=O)N[C@@H](Cc2ccccc2)C1 , state its measured MIC, K. pneumoniae (causing pneumonia). >100 µg/mL

Could you please provide reported MIC, K. pneumoniae (causing pneumonia) for CCCCCCCC/C=C\CCCCCCCC(=O)N[C@@H](CCCCN)CN(CC(N)=O)C(=O)CCCN ? Thanks! 50 µg/mL

Respond only with MIC, K. pneumoniae (causing pneumonia) recorded for CC(C)C[C@@H](CN(CC(=O)N[C@@H](CCCCN)CN(CC(N)=O)C(=O)CCc1ccccc1)C(=O)CCc1ccccc1)NC(=O)CN(C[C@H](CCCCN)NC(=O)CN(C[C@H](CCCCN)NC(=O)CN(C[C@H](CC(C)C)NC(=O)CN(C[C@H](CCCCN)NC(=O)CN(C[C@@H](N)CCCCN)C(=O)CCc1ccccc1)C(=O)CCc1ccccc1)C(=O)CCc1ccccc1)C(=O)CCc1ccccc1)C(=O)CCc1ccccc1 5 µg/mL

Continue with the compound presented below.
Note MIC, K. pneumoniae (causing pneumonia) for the compound shown: CCCCCCCCCCCCCCCC(=O)N[C@@H](C)CN(CC(=O)N[C@@H](C)CN(CC(=O)N[C@@H](CC(C)C)CN(CC(=O)N[C@@H](CC(C)C)CN(CC(=O)N[C@@H](CC(C)C)CN(CC(N)=O)C(=O)CCCN)C(=O)CCCN)C(=O)CCCN)C(C)=O)C(C)=O 5 µg/mL

====

# Tested on: human red blood cells (hRBC's)
# Assay protocol: Hemolysis assay
# Type: cell-based
# Recorded conditions: red cells of human
Listed molecules paired with reported Hemolysis HC10
Please state the figure in µg/mL; there is no need to write the unit.

# return recorded Hemolysis HC10 for entry CCCCCCCCCCCCCCCC(=O)N[C@@H](CCCCN)CN(CC(N)=O)C(=O)CCCN 25

Let me know recorded Hemolysis HC10 for CCCCCCCC/C=C\CCCCCCCC(=O)N[C@@H](C)CN(CC(=O)N[C@@H](C)CN(CC(=O)N[C@@H](CC(C)C)CN(CC(=O)N[C@@H](CC(C)C)CN(CC(=O)N[C@@H](CC(C)C)CN(CC(N)=O)C(=O)CCCN)C(=O)CCCN)C(=O)CCCN)C(C)=O)C(C)=O , thanks. 100
